Data provenance is the supplement of paper PMC10567573.

B1: RTN1 (parent)
chain: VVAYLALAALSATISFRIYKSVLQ

# Variants of: B1
# TEST NAME: protein stability index of a GFP-peptide fusion (GPS, HEK-293T) (PSI 1-6); higher = more stable;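 also: lentivirally expressed fusions sorted by FACS into six bins by GFP to DsRed ratio, PSI derived from sequencing read proportions per bin multiplied by bin number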
# ASSAY CONDITIONS: c terminus: a fixed tail appended
Decide by protein stability index: equal to or exceeding 3 means YES, less means NO.

>  <VARIANT ID>
F16P

>  <CAT>
YES

$$$$
>  <VARIANT ID>
V22R

>  <CAT>
NO

$$$$
>  <VARIANT ID>
Y19H

>  <CAT>
NO

$$$$
>  <VARIANT ID>
Y4Q

>  <CAT>
NO

$$$$
>  <VARIANT ID>
Q24I

>  <CAT>
NO

$$$$
>  <VARIANT ID>
Q24P

>  <CAT>
NO

$$$$
